- method: Aqueous solubility of compound
- Format: physicochemical
- conditionsUsed: buffer
assayReadout: solubility (µg/mL)

O=c1cc(-c2ccccc2)oc2cc(O)c(O)c(O)c12; 16.8

* * *

- measuredOn: Xanthine dehydrogenase/oxidase (Homo sapiens)
- Sequence (P47989 whole entry): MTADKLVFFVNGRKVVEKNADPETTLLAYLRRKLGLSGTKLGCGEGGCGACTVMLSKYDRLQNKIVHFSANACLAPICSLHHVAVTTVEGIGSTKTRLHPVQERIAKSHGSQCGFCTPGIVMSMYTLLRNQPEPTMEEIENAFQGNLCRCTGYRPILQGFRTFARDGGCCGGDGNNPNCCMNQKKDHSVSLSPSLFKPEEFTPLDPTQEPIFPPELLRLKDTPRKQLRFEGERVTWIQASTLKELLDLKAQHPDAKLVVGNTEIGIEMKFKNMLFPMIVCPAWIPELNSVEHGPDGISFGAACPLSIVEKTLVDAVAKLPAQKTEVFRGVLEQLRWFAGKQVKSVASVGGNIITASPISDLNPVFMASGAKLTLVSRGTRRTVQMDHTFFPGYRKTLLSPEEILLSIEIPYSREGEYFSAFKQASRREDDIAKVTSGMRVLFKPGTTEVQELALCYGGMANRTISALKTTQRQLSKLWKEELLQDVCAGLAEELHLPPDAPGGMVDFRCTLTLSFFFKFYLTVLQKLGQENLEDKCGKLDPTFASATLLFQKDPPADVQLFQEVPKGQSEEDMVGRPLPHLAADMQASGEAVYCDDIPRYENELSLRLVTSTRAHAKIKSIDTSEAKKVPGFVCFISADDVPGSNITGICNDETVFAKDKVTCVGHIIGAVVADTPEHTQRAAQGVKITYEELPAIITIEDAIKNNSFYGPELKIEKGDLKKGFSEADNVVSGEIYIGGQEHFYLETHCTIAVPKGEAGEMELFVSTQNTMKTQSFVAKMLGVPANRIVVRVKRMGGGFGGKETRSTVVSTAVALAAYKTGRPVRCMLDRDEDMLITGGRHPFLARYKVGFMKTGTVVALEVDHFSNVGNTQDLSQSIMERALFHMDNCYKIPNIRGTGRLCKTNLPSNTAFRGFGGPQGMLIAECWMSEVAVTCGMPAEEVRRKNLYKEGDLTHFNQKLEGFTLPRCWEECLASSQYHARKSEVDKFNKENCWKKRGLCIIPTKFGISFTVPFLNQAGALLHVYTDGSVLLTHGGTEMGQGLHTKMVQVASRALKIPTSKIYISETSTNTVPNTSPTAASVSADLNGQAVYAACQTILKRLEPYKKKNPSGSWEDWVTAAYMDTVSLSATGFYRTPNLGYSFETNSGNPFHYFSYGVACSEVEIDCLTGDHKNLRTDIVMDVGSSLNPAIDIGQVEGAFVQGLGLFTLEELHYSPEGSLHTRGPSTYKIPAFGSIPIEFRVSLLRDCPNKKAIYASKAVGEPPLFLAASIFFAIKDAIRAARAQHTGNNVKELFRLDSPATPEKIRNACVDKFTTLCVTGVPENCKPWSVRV
- method: Inhibition of xanthine oxidase (unknown origin) using xanthine as substrate preincubated for 30 mins followed by substrate addition by spectrophotometry
pIC50: −log10 of the molar value.
assayReadout: pIC50

O=C(O)[C@H]1O[C@@H](Oc2cc3oc(-c4ccccc4)cc(=O)c3c(O)c2O)[C@H](O)[C@@H](O)[C@@H]1O; 4.26

* * *

- method: Apparent permeability in human Caco-2 cells measured for 30 to 180 mins by HPLC analysis
- Assay type: ADME, cell-based
- conditionsUsed: time 30-180 min
assayReadout: Papp (×10⁻⁶ cm/s)

O=C(O)[C@H]1O[C@@H](Oc2cc3oc(-c4ccccc4)cc(=O)c3c(O)c2O)[C@H](O)[C@@H](O)[C@@H]1O [BAICALIN]; 0.037

* * *

- method: Cytotoxicity against African green monkey Vero cells by CCK8 assay
- Type: toxicity, cell-based
- conditionsUsed: chlorocebus sabaeus
assayReadout: CC50

O=c1cc(-c2ccccc2)oc2cc(O)c(O)c(O)c12 [BAICALEIN]; > 500 µM

* * *

- method: Cytotoxicity against African green monkey Vero cells
- Type: toxicity, cell-based
- conditionsUsed: chlorocebus sabaeus
Below, each of the compounds is paired with its reported CC50 value.
assayReadout: CC50

O=c1cc(-c2ccccc2)oc2cc(O)c(O)c(O)c12; > 200 µM
O=C(O)[C@H]1O[C@@H](Oc2cc3oc(-c4ccccc4)cc(=O)c3c(O)c2O)[C@H](O)[C@@H](O)[C@@H]1O; > 200 µM
